Assay: Hematology assays in cynomolgus monkeys (Example 45)
Assay type: in vivo
Conditions: day 43; escalating dose regimen
measured quantity: MCV
Your answer should be a number followed by the unit of measure.

• ISIS 416864: MOE gapmer, nucleobases 1275 to 1318 of SEQ ID NO: 1 (Table 8) (antisense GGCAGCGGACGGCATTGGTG; MOE gapmer, wing and gap sizes not given here) = 77 fL

query: Tell me the measured MCV of ISIS 416850: MOE gapmer, nucleobases 1275 to 1318 of SEQ ID NO: 1 (Table 8) (antisense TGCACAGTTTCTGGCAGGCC; MOE gapmer, wing and gap sizes not given here) , please.
result: 79 fL

query: Give its MCV value. Item: ISIS 416858: MOE gapmer, nucleobases 1275 to 1318 of SEQ ID NO: 1 (Table 8) (antisense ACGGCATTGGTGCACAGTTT; MOE gapmer, wing and gap sizes not given here)
result: 74 fL

query: Request the reported MCV associated with ISIS 416838: MOE gapmer, nucleobases 1018 to 1042 of SEQ ID NO: 1 (Table 6) (antisense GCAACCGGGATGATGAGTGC; MOE gapmer, wing and gap sizes not given here)
result: 78 fL

query: Data request, read-out MCV, for ISIS 417002: MOE gapmer, nucleobases 1275 to 1318 of SEQ ID NO: 1 (Table 8) (antisense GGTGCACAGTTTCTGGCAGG; MOE gapmer, wing and gap sizes not given here)
result: 77 fL

###

Test system: Factor 11 protein
Assay: Factor 11 protein in monkey plasma by sandwich ELISA (Example 45)
Format: in vivo, cynomolgus monkeys
Details: day 85; escalating dose regimen; plasma ELISA
measured quantity: Inhibition of Factor 11 protein relative to the PBS control (%)
Write the number in % without appending the unit.

Please review the entries below; each comes with its answer.
* ISIS 416864: MOE gapmer, nucleobases 1275 to 1318 of SEQ ID NO: 1 (Table 8) (antisense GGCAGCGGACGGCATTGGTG; MOE gapmer, wing and gap sizes not given here) | 8
* ISIS 416838: MOE gapmer, nucleobases 1018 to 1042 of SEQ ID NO: 1 (Table 6) (antisense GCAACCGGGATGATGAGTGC; MOE gapmer, wing and gap sizes not given here) | 10

Next item in the queue.
query: Tell me the measured Inhibition of Factor 11 protein relative to the PBS control of ISIS 417002: MOE gapmer, nucleobases 1275 to 1318 of SEQ ID NO: 1 (Table 8) (antisense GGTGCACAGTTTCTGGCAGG; MOE gapmer, wing and gap sizes not given here) , please.
result: 23

###

Test: Bleeding assay, Surgicutt Jr. device (Example 45)
Assay type: in vivo, cynomolgus monkeys
Parameters: unit not given here
Conditions: day 57; escalating dose regimen
Method: Groups, each consisting of two male and three female monkeys, were injected subcutaneously with ISIS 416838, ISIS 416850, ISIS 416858, ISIS 416864, or ISIS 417002 in escalating doses. […] Body weights were measured weekly. […] On different days during the treatment period, bleeding assay was performed using a Surgicutt Jr. device (ITC, New Jersey). […] The stopwatch was then stopped and the bleeding time determined. […]
measured quantity: bleeding time
Lab note: jot down the number only; don't add units.

Worked set:
* ISIS 416858: MOE gapmer, nucleobases 1275 to 1318 of SEQ ID NO: 1 (Table 8) (antisense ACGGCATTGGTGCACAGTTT; MOE gapmer, wing and gap sizes not given here) | 138
* ISIS 416864: MOE gapmer, nucleobases 1275 to 1318 of SEQ ID NO: 1 (Table 8) (antisense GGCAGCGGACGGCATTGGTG; MOE gapmer, wing and gap sizes not given here) | 216

Alright, here's another substance for you.
query: // query bleeding time value for entry ISIS 416838: MOE gapmer, nucleobases 1018 to 1042 of SEQ ID NO: 1 (Table 6) (antisense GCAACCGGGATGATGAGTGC; MOE gapmer, wing and gap sizes not given here)
result: 238

###

System: human Factor 11 mRNA
Assay: Dose-dependent antisense inhibition of human Factor 11 in HepG2 cells, lipofectin 9.375-150 nM (Example 2)
Format: cell-based
Settings: 75 nM, ~16 h
Strand notation (5' to 3'): a small letter for the sugar, then the base; units joined by * are phosphorothioate-linked, units joined directly phosphodiester-linked; [ ] holds rarer units or linkages, { } end groups; capitals alone tell only the bases. e = 2'-O-(2-methoxyethyl) (MOE); [5mC] = 5-methylcytosine; d = 2'-deoxy (DNA)
measured quantity: percent inhibition of Factor 11 at 75 nM (%)
Numeric only. Scale: %

Below are worked cases with known answers.
• 412203 (antisense eA*eA*eT*eG*eT*d[5mC]*dT*dT*dT*dG*dT*dT*dG*d[5mC]*dA*eA*eG*e[5mC]*eG*e[5mC]) [compound 412203] = 77
• 412225 (antisense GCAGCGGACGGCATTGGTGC; 5-10-5 MOE gapmer, further chemistry not given here) [compound 412225] = 78
• 413469 (antisense eT*eG*e[5mC]*e[5mC]*e[5mC]*dT*dT*d[5mC]*dA*dT*dG*dT*d[5mC]*dT*dA*eG*eG*eT*e[5mC]*e[5mC]) [compound 413469] = 70
• 413476 (antisense eT*eT*eG*eA*eG*dA*dT*dT*d[5mC]*dT*dT*dT*dG*dG*dG*e[5mC]*e[5mC]*eA*eT*eT) [compound 413476] = 73
• 413468 (antisense eG*eT*e[5mC]*eT*eA*dG*dG*dT*d[5mC]*d[5mC]*dA*d[5mC]*dA*dT*dA*eA*eA*eT*eG*eT) [compound 413468] = 78
• 413482 (antisense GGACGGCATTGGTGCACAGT; 5-10-5 MOE gapmer, further chemistry not given here) [compound 413482] = 74
• 412223 (antisense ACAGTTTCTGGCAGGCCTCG; 5-10-5 MOE gapmer, further chemistry not given here) [compound 412223] = 76
• 413467 (antisense eG*eG*eT*e[5mC]*e[5mC]*dA*d[5mC]*dA*dT*dA*dA*dA*dT*dG*dT*e[5mC]*eT*eT*eT*eG) [compound 413467] = 61
• 412212 (antisense e[5mC]*e[5mC]*eG*eG*eG*dA*dT*dG*dA*dT*dG*dA*dG*dT*dG*e[5mC]*eA*eG*eA*eT) [compound 412212] = 73
• 412206 (antisense e[5mC]*e[5mC]*eG*eT*eG*d[5mC]*dA*dT*d[5mC]*dT*dT*dT*d[5mC]*dT*dT*eG*eG*e[5mC]*eA*eT) [compound 412206] = 80

query: Look up percent inhibition of Factor 11 at 75 nM: 412224 (antisense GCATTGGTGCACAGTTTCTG; 5-10-5 MOE gapmer, further chemistry not given here) [compound 412224]
result: 70

query: percent inhibition of Factor 11 at 75 nM lookup needed for 413481 (antisense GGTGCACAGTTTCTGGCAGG; 5-10-5 MOE gapmer, further chemistry not given here) [compound 413481] , thanks.
result: 67

###

Conditions: mouse, in vivo, sc, 50 mg/kg
e = 2'-O-(2-methoxyethyl) (MOE); d = 2'-deoxy (DNA)
measured quantity: monocytes (cells/μL)
Output spec: scalar in cells/μL, unitless text.

See these solved cases before continuing.
- ISIS 413481: 5-10-5 MOE gapmer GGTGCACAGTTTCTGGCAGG (sugars from the 5' end e5 d10 e5, backbone and methylation of C not given here): 204
- ISIS 416853: MOE gapmer, nucleobases 1275 to 1318 of SEQ ID NO: 1 (Table 8) (antisense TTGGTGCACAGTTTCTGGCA; MOE gapmer, wing and gap sizes not given here): 225
- ISIS 416850: MOE gapmer, nucleobases 1275 to 1318 of SEQ ID NO: 1 (Table 8) (antisense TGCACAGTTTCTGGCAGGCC; MOE gapmer, wing and gap sizes not given here): 156

query: Look up monocytes for this substance: ISIS 416848: MOE gapmer, nucleobases 1275 to 1318 of SEQ ID NO: 1 (Table 8) (antisense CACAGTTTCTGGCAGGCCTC; MOE gapmer, wing and gap sizes not given here)
result: 180

query: Given the substance ISIS 416857: MOE gapmer, nucleobases 1275 to 1318 of SEQ ID NO: 1 (Table 8) (antisense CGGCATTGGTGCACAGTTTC; MOE gapmer, wing and gap sizes not given here) , what is its reported monocytes?
result: 215

query: Param item = ISIS 412223: 5-10-5 MOE gapmer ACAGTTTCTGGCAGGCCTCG (sugars from the 5' end e5 d10 e5, backbone and methylation of C not given here) ; retrieve measured monocytes.
result: 200

query: Look up monocytes for this substance: ISIS 416861: MOE gapmer, nucleobases 1275 to 1318 of SEQ ID NO: 1 (Table 8) (antisense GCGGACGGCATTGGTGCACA; MOE gapmer, wing and gap sizes not given here)
result: 219

query: Requested read-out: monocytes. Entry: ISIS 413482: 5-10-5 MOE gapmer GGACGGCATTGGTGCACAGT (sugars from the 5' end e5 d10 e5, backbone and methylation of C not given here)
result: 275

Hey, just so you know, these numbers are from patent US20230263822A1.
